system: G. lamblia; assay: 50% inhibitory concentration against G. lamblia; format: cell-based; details: Giardia duodenalis; read-out: G. lamblia IC50
Where a name gives a salt, the structure may show the parent alone.
Please provide measured IC50 for the entries that follow.
Number in nM, nothing else.

// IC50 (G. lamblia) for c1cc(-c2ccc(C3=NCCN3)cc2)nc(-c2ccc(C3=NCCN3)cc2)n1 [Compound 2, hydrochloride] = 3000

Response field IC50 (G. lamblia) for item c1cc(-c2ccc(C3=NCCCN3)cc2)nc(-c2ccc(C3=NCCCN3)cc2)n1 [Compound 3, hydrochloride] : 790

c1ccc(-c2nccc(-c3ccc(C4=NCCN4)cc3)n2)cc1 [Compound 4, hydrochloride] on G. lamblia gives IC50 = 2000

Record for COc1cc(C(=N)NC(C)C)ccc1-c1ccnc(-c2ccc(C(=N)NC(C)C)cc2)n1 under target or system G. lamblia: IC50 reported as 36700

Kindly note: G. lamblia, Cl.N=C(N)c1ccc(-c2ccnc(-c3ccc(C(=N)N)cc3)n2)cc1 [Compound 1, hydrochloride] , IC50 value reported: 2000
